Value source: paper PMC7910904

Kindly supply the reported IC50 values for the records listed here.
tested on: 3T3 fibroblasts; assay: MTT cytotoxicity on 3T3 fibroblasts; type: cell-based, murine; conditions: Mus musculus, Fibroblast, 50% viability after 48 h
Give bare numbers, in µg/mL.

Compound: CCC(C)c1cc(=O)oc2c3c(c4c(c12)OC(C)(C)C=C4)OC(C)C(C)C3O (stereo not drawn) [Tamanolide D]
Measured on: 3T3 fibroblasts
Readout type: IC50
Units of measure: µg/mL
Numeric readout: 46

Compound: C[C@@H]1[C@@H](C)Oc2c3c(c4c(-c5ccccc5)cc(=O)oc4c2[C@@H]1O)OC(C)(C)C=C3
Measured on: 3T3 fibroblasts
Readout type: IC50
Units of measure: µg/mL
Numeric readout: 92

Here is another compound to look at.
Ask | Form field - read-out: IC50; system: 3T3 fibroblasts; submitted item: C/C=C(\C)C(=O)c1c(OC)c2c(c3c(-c4ccccc4)cc(=O)oc13)OC(C)(C)C=C2 [Calophyllolide]
Reply | 49

---

test system: M. tuberculosis H37 RV; experiment: Anti-mycobacterial Microplate-based Alamar Blue assay (MABA); type: cell-based; settings: Mycobacterium tuberculosis, H37RV
Readout type: MIC

Known results for compounds:
Compound: CCCc1cc(=O)oc2c3c(c4c(c12)OC(C)(C)C=C4)O[C@H](C)[C@@H](C)C3=O [12-Oxocalanolide A]
MIC: > 15 µg/mL
//
Compound: C=C(C)C(CC=C(C)C)CC1(CC=C(C)C)C(=O)C(C(CCC)CC(=O)O)=C(O)C2=C1O[C@H](C)[C@@H](C)C2=O (stereo partly drawn) [Inocalophyllin B]
MIC: > 15 µg/mL

Here is another compound to look at.
Ask | Form field - read-out: MIC; system: M. tuberculosis H37 RV; submitted item: C[C@@H]1C(=O)c2c(c3c(c4c(-c5ccccc5)cc(=O)oc24)OC(C)(C)C=C3)O[C@@H]1C [Inophyllum E]
Reply | > 15 µg/mL

---

test: DPPH assay; conditions: metabolites and standards, in dichloromethane
pIC50: −log10 of the molar value.
Readout type: pIC50

Known results for compounds:
Compound: CCCc1cc(=O)oc2c3c(c4c(c12)OC(C)(C)C=C4)O[C@H](C)[C@@H](C)C3=O [12-Oxocalanolide A]
pIC50: < 3.00
--
Compound: CCCc1cc(=O)oc2c3c(c4c(c12)OC(C)(C)C=C4)O[C@H](C)[C@@H](C)[C@@H]3O [Calanolide A]
pIC50: ~3.02

Here is another compound to look at.
Ask | Give the measured pIC50 of C/C=C(\C)C(=O)c1c(OC)c2c(c3c(CCC)cc(=O)oc13)OC(C)(C)C=C2 [Calanolide GUT 70] .
Reply | ~3.05
